This collection of values is drawn from ChEMBL document CHEMBL1135951.

Overview of reported minimal effective dose across a group of compounds:
# Species on record: Rattus norvegicus
# assaySummary: Minimum effective dose required for anticonflict in rat perorally
# Format: functional
# conditionDescription: po, read-out: MED
reportedMetric: minimal effective dose

[[record]]
structurestring = "CN(C)/C=N/CCN1C2=C(C(=O)Nc3ccccc3F)C(=O)CCN2c2ccc(F)cc21"
reportedmetric = "minimal effective dose"
testvalue = "30 mg/kg"

[[record]]
structurestring = "CCOCN1C2=C(C(=O)Nc3ccccc3F)C(=O)CCN2c2ccc(F)c(F)c21"
reportedmetric = "minimal effective dose"
testvalue = "1 mg/kg"

[[record]]
structurestring = "CCOCN1C2=C(C(=O)Nc3ccccc3F)C(=O)CCN2c2cc(F)cc(F)c21"
reportedmetric = "minimal effective dose"
testvalue = "> 10 mg/kg"

[[record]]
structurestring = "CCOCN1C2=C(C(=O)Nc3cccs3)C(=O)CCN2c2ccc(F)cc21"
reportedmetric = "minimal effective dose"
testvalue = "3 mg/kg"

[[record]]
structurestring = "CCOCN1C2=C(C(=O)Nc3ccccc3F)C(=O)CCN2c2ccccc21"
reportedmetric = "minimal effective dose"
testvalue = "10 mg/kg"

[[record]]
structurestring = "COCCOCN1C2=C(C(=O)Nc3ccccc3F)C(=O)CCN2c2ccc(F)cc21"
reportedmetric = "minimal effective dose"
testvalue = "3 mg/kg"

[[record]]
structurestring = "CN(C)CCCN1C2=C(C(=O)Nc3ccccc3F)C(=O)CCN2c2ccc(F)cc21"
reportedmetric = "minimal effective dose"
testvalue = "> 10 mg/kg"

[[record]]
structurestring = "CCOCN1C2=C(C(=O)Nc3ccccc3F)C(=O)CCN2c2cc3ccccc3cc21"
reportedmetric = "minimal effective dose"
testvalue = "> 10 mg/kg"

[[record]]
structurestring = "CCOCN1C2=C(C(=O)Nc3c(F)cccc3F)C(=O)CCN2c2ccc(F)cc21"
reportedmetric = "minimal effective dose"
testvalue = "> 10 mg/kg"

[[record]]
structurestring = "CCOCCCN1C2=C(C(=O)Nc3ccccc3F)C(=O)CCN2c2ccc(F)cc21"
reportedmetric = "minimal effective dose"
testvalue = "1 mg/kg"


====

# targetEntity: GABA-A receptor; anion channel (Rattus norvegicus) (UniProt O09028+P15431+P18506+P18508+P19969+P20236+P23574+P23576+P28471+P28473+P30191+P62813+P63079+P63138+Q91ZM7+Q9ES14)
# assaySummary: Minimum effective dose required for anticonflict in rat intraperitoneally
# Type: functional
reportedMetric: MED

[[record]]
structurestring = "O=C1CCN2C(=C1C(=O)Nc1ccccc1F)N(CCc1ccccn1)c1cc(F)ccc12"
testvalue = "10 mg/kg"

[[record]]
structurestring = "O=C1CCN2C(=C1C(=O)Nc1ccccc1F)N(CCCO)c1cc(F)ccc12"
testvalue = "10 mg/kg"

[[record]]
structurestring = "CCOCCN1C2=C(C(=O)Nc3ccccc3F)C(=O)CCN2c2ccc(F)cc21"
testvalue = "< 10 mg/kg"

[[record]]
structurestring = "COCCOCN1C2=C(C(=O)Nc3ccccc3F)C(=O)CCN2c2ccc(F)cc21"
testvalue = "< 10 mg/kg"

[[record]]
structurestring = "O=C(Nc1ccccc1F)C1=C(O)CCn2c1nc1cc(F)ccc12"
testvalue = "10 mg/kg"

[[record]]
structurestring = "CN(C)c1ccc(CCN2C3=C(C(=O)Nc4ccccc4F)C(=O)CCN3c3ccc(F)cc32)cc1"
testvalue = "> 10 mg/kg"

[[record]]
structurestring = "CCOCN1C2=C(C(=O)Nc3ccc(O)cc3F)C(=O)CCN2c2ccc(F)cc21"
testvalue = "1 mg/kg"

[[record]]
structurestring = "CN(C)CCN1C2=C(C(=O)Nc3ccccc3F)C(=O)CCN2c2ccc(F)cc21"
testvalue = "< 10 mg/kg"

[[record]]
structurestring = "COCCNCCN1C2=C(C(=O)Nc3ccccc3F)C(=O)CCN2c2ccc(F)cc21"
testvalue = "10 mg/kg"

[[record]]
structurestring = "O=C1CCN2C(=C1C(=O)Nc1ccccc1F)N(CCO)c1cc(F)ccc12"
testvalue = "10 mg/kg"

